CC50 values, listed per item
assay: Cytotoxicity against human THP1 cells by MTT assay; assay type: cell-based; conditions: THP-1 cells

molecule: COc1cccc(/C=C/C(=O)c2ccccc2O)c1
CC50: > 25 µM

molecule: COc1ccc(O)c(C(=O)/C=C/c2cc(OC)c(OC)c(OC)c2)c1
CC50: > 25 µM

Request: Requested field: CC50. Item: `COc1ccc(O)c(C(=O)/C=C/c2ccc(OC)c(OC)c2)c1`
Result: > 50 µM

Request: Requested field: CC50. Item: `COc1ccc(C(=O)/C=C/c2cc(OC)c(OC)c(OC)c2)c(O)c1`
Result: > 100 µM

Request: Requested field: CC50. Item: `COc1cccc(/C=C/C(=O)c2cc(OC)ccc2O)c1`
Result: > 25 µM

Request: Requested field: CC50. Item: `COc1cccc(/C=C/C(=O)c2cc(OC)c(OC)cc2O)c1`
Result: 51 µM
